assayed.system: HIV Env of isolate MS208.A1 (clade A) (HIV)
method: cell-based or functional assay
measurement.name: IC50 (µg/ml) with constrains (µg/mL)
Your answer should be a plain number; it is taken to be in µg/mL.

ePGDM9 (antibody, V domains shown) VH: QAQLVQSGPEVRKPGTSVKVSCKNPGNTLTTYDLHWVRQVPGQGLQWMGWISHEGDKKVIVERFKAKVTIDWDRSTNTAYLQLSGLTSEDTAVYYCAKGSKHRLRDYALYDEDGALNWAVDVDYLANLEFWGQGTAVTVSS VL: DIVLTQSPLSLSVTPGESASISCKSSQSLIHGDRNNYLAWYVQKPGRSPQLLIDLASERASGVPDRFSGSGSRKDFTLKISRVETEDVGTYYCMQGRESPWTFGQGTKVDIK
0.009
PGDM1400 (antibody, V domains shown) VH: QVHLTQSGPEVRKPGTSVKVSCKAPGNTLKTYDLHWVRSVPGQGLQWMGWISHEGDKKVIVERFKAKVTIDWDRSTNTAYLQLSGLTSGDTAVYYCAKGSKHRLRDYALYDDDGALNWAVDVDYLSNLEFWGQGTAVTVSS VL: DFVLTQSPHSLSVTPGESASISCKSSHSLIHGDRNNYLAWYVQKPGRSPQLLIYLASSRASGVPDRFSGSGSDKDFTLKISRVETEDVGTYYCMQGRESPWTFGQGTKVDIK
0.01
ePGDM13 (antibody, V domains shown) VH: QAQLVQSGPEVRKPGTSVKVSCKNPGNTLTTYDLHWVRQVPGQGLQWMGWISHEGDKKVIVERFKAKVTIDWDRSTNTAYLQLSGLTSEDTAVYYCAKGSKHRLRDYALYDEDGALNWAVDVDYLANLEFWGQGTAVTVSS VL: DIVLTQSPLSLSVTPGESASISCKSSHSLQHGDRNNYLAWYVQKPGRSPQLLLDLASERASGVPDRFSGSGSEKDFTLKISRVETEDVGTYYCMQGRESPWTFGQGTKVDIK
0.027

// switching to the query binder
Form: binder = ePGDM5 (antibody, V domains shown) VH: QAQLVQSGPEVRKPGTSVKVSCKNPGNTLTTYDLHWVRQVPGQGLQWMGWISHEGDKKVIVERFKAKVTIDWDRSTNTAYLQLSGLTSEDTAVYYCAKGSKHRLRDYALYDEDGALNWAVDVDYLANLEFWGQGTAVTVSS VL: DFVLTQSPLSLSVTPGESASISCKSDHSLQHGDRNNYLAWYVQKPGRSPQLLIDLASERASGVPDRFSGSGSRKDFTLKIDRVEAEDVGTYYCMQGRESPWTFGQGTKVDIK ; IC50 (µg/ml) with constrains = 0.007
